# System: T-47D breast
# Protocol Summary: NCI tumour cell line growth inhibition, 48 h

{"Molecule": "CN/N=C(/CCN1CCCC1)CC(c1ccccc1)c1c(O)c2ccccc2oc1=O (stereo not given)", "TGI": "> 100 µM"}
{"Molecule": "O=C(CC(O)(C(F)(F)F)C(F)(F)F)C(c1ccccc1)C(O)(C(F)(F)F)C(F)(F)F (stereo not given)", "TGI": "> 100 µM"}
{"Molecule": "O=C1c2ccccc2-c2nnc(-c3ccc([N+](=O)[O-])cc3)cc21", "TGI": "> 10 µM"}
{"Molecule": "C[N+]12CCCCC1C(COc1cccc3cccnc13)CCC2 (stereo not given)", "TGI": "> 100 µM"}
{"Molecule": "CCCCCCCC(CC(=O)NC(CO)C(=O)NC(CO)CC(C)C)OC(=O)CC(CCCCCCC)OC(=O)CC(CCCCCCC)OC1OC(C)C(O)C(OC2OC(C)C(O)C(OC(C)=O)C2O)C1O (stereo not given)", "TGI": "26.8 µM"}
{"Molecule": "Cc1nc(N)c(N2CCN(S(N)(=O)=O)CC2)c(=O)[nH]1", "TGI": "> 100 µM"}
{"Molecule": "O=C1c2ccccc2-c2c1c1ccccc1c(=O)n2Cc1ccccc1", "TGI": "> 100 µM"}
{"Molecule": "CC[C@@]1(O)C(=O)OCc2c1cc1n(c2=O)Cc2c-1nc1ccccc1c2/C=N\\NC(=O)C[n+]1ccccc1", "TGI": "2.9 µM"}
{"Molecule": "Cc1c(N=Nc2ccccc2)c(-c2ccccc2)n(C2OC(CO)C(O)C(O)C2O)c(=S)c1C#N (stereo not given)", "TGI": "4.74 µM"}
{"Molecule": "COC(=O)C(=O)C(C(=O)C(=O)Nc1ccccc1C(N)=O)c1nc2ccc(Cl)cc2[nH]c1=O (stereo not given)", "TGI": "> 100 µM"}
{"Molecule": "N#Cc1ccc(NC(=NCC(=O)O)Nc2cccc3ccccc23)cc1", "TGI": "> 10 µM"}
{"Molecule": "CC/C=C\\C[C@@H]1C/C=C2/C(=O)C=C[C@H]2C/C=C\\CCCC(=O)O1", "TGI": "6.28 µM"}
{"Molecule": "COc1cc2c(cc1C)NC(=O)/C2=C/c1cccnc1", "TGI": "8.13 µM"}
{"Molecule": "NC(=S)N/N=C/c1ccc(OC(=O)COc2ccc(Cl)cc2)cn1", "TGI": "> 100 µM"}
{"Molecule": "CC12CCCC(O)C1CCC1=CC3(CCC12)SCCS3 (stereo not given)", "TGI": "> 10 µM"}
{"Molecule": "COc1ccccc1C[C@@H]1OC2(C=CC(=O)CC2SC(=O)c2ccccc2)O[C@H]1Cc1ccccc1OC (stereo not given in full)", "TGI": "5.64 µM"}
{"Molecule": "CC(=O)OC1=NN=C2COC(c3ccccc3OC(C)=O)=NN2C1", "TGI": "> 50 µM"}
{"Molecule": "CN(CCC(=O)N1CC(CCl)c2ccc([N+](=O)[O-])cc21)CCC(=O)N1CC(CCl)c2ccc([N+](=O)[O-])cc21 (stereo not given)", "TGI": "> 100 µM"}
{"Molecule": "CC(=O)OC1Oc2ccccc2-c2oc(=O)c(-c3cc4ccc(N(C)C)cc4oc3=O)cc21 (stereo not given)", "TGI": "30.1 µM"}
{"Molecule": "C=C(C)C1CC=C(C)C(=O)C1 (stereo not given)", "TGI": "> 100 µM"}

---

# Tested on: DU-145 prostate
# Protocol Summary: NCI tumour cell line growth inhibition, 48 h

{"Molecule": "CC(NC(=O)OCc1ccccc1)NC(=O)OC(C)(C)C (stereo not drawn)", "Display Unit": "µM", "Relation Operator": ">", "TGI": 100}
{"Molecule": "C=CCN1C(=O)/C(=C/c2ccc(Cl)cc2)N=C1SC/C=C/C", "Display Unit": "µM", "Relation Operator": ">", "TGI": 100}
{"Molecule": "CCN(CC)CCN1CC(O)=C(c2nc(-c3ccc(Cl)cc3)cs2)C1=N", "Display Unit": "µM", "Relation Operator": "=", "TGI": 62.4}
{"Molecule": "Cc1ccc(C(=NN=C(N)N)c2ccc(C)cc2)cc1", "Display Unit": "µM", "Relation Operator": "=", "TGI": 1.16}
{"Molecule": "Fc1cc(F)c(COc2cc(Cn3cnc4c(Cl)nc(Cl)nc43)ccc2C23CC4CC(CC(C4)C2)C3)cc1F", "Display Unit": "µM", "Relation Operator": "=", "TGI": 30.8}
{"Molecule": "COc1ccc(NC(=S)Nc2cc(C)ccn2)cc1", "Display Unit": "µM", "Relation Operator": ">", "TGI": 100}
{"Molecule": "CCCCN=C(N)c1ccc(OCCSCCOc2ccc(C(N)=NCCCC)cc2)cc1", "Display Unit": "µM", "Relation Operator": ">", "TGI": 100}
{"Molecule": "CN(C)CCNC(=O)c1cccc(C(=O)Nc2ccccc2)c1[N+](=O)[O-]", "Display Unit": "µM", "Relation Operator": ">", "TGI": 100}
{"Molecule": "O=C(CC(O)(C(F)(F)F)C(F)(F)F)C(c1ccccc1)C(O)(C(F)(F)F)C(F)(F)F (stereo not drawn)", "Display Unit": "µM", "Relation Operator": ">", "TGI": 100}
{"Molecule": "CC(C)OC(=O)c1ccc(NCC2=CC(=O)C=CC2=O)cc1", "Display Unit": "µM", "Relation Operator": "=", "TGI": 35.8}
{"Molecule": "CCOc1cccc(C=Nc2ccccc2SSc2ccccc2N=Cc2cccc(OCC)c2O)c1O", "Display Unit": "µM", "Relation Operator": "=", "TGI": 30.9}
{"Molecule": "CN(C)c1ccc(N)cc1", "Display Unit": "µM", "Relation Operator": "=", "TGI": 48.1}
{"Molecule": "Nc1cc(Cl)cc2cc(Cl)cnc12", "Display Unit": "µM", "Relation Operator": ">", "TGI": 100}
{"Molecule": "O=C(c1cccc(O)c1O)c1cn(Cc2ccc(F)cc2)c2cccc(O)c12", "Display Unit": "µM", "Relation Operator": "=", "TGI": 17.3}
{"Molecule": "CSC1=N/C(=C\\c2ccc(C)cc2)C(=O)N1", "Display Unit": "µM", "Relation Operator": ">", "TGI": 100}
{"Molecule": "CCSc1nnc(Sc2c3ccccc3nc3ccccc23)s1", "Display Unit": "µM", "Relation Operator": "=", "TGI": 30.2}
{"Molecule": "NC(N)=NCCCn1c2c(c3ccccc3c1=O)C(=O)c1ccccc1-2", "Display Unit": "µM", "Relation Operator": "=", "TGI": 22.9}
{"Molecule": "O=C(Nc1ccc(Cl)cc1)c1cc(S(=O)(=O)Nc2n[nH]c(Nc3ccc4ccccc4c3)n2)c(SSc2cc(Cl)c(C(=O)Nc3ccc(Cl)cc3)cc2S(=O)(=O)Nc2n[nH]c(Nc3ccc4ccccc4c3)n2)cc1Cl", "Display Unit": "µM", "Relation Operator": ">", "TGI": 74.4}
{"Molecule": "COc1cc(C(=O)NNC(=O)c2cc(Br)ccc2NC(=O)c2cccs2)cc(OC)c1OC", "Display Unit": "µM", "Relation Operator": ">", "TGI": 100}
{"Molecule": "Cc1nc(N)c(N2CCN(S(N)(=O)=O)CC2)c(=O)[nH]1", "Display Unit": "µM", "Relation Operator": ">", "TGI": 100}
{"Molecule": "O=C(O)c1cccc(Nc2c(C(=O)O)cccc2[N+](=O)[O-])c1", "Display Unit": "µM", "Relation Operator": ">", "TGI": 100}
{"Molecule": "CC(=O)OCC1OC(NC(=S)Nn2c(=O)[nH]c3ccccc3c2=O)C(OC(C)=O)C(OC(C)=O)C1OC(C)=O (stereo not drawn)", "Display Unit": "µM", "Relation Operator": ">", "TGI": 100}
{"Molecule": "CC1CN1CC(O)C(O)CN1CC1C (stereo not drawn)", "Display Unit": "µM", "Relation Operator": "=", "TGI": 9.28}
{"Molecule": "O=C(CCl)Nc1ccc(Cl)cc1", "Display Unit": "µM", "Relation Operator": "=", "TGI": 17.4}
{"Molecule": "Cc1cc(SCC(=O)c2ccccc2)nc2ccccc12", "Display Unit": "µM", "Relation Operator": ">", "TGI": 100}
{"Molecule": "NC1C/C(=N\\O)c2c(Cl)sc(Cl)c21 (stereo not drawn)", "Display Unit": "µM", "Relation Operator": "=", "TGI": 29}
{"Molecule": "COc1cc(NC(=O)c2cc(O)c(CC=C(C)C)c(O)c2)cc2c1O[C@]1(C)CC[C@@H](O)C(C)(C)[C@H]1C2", "Display Unit": "µM", "Relation Operator": "=", "TGI": 20.5}
{"Molecule": "Cc1nc2ccccc2c(=O)n1NC(=O)c1ccccn1", "Display Unit": "µM", "Relation Operator": ">", "TGI": 100}
{"Molecule": "CCOC(=O)/C(C#N)=C/Nc1c(C)n(C)n(-c2ccccc2)c1=O", "Display Unit": "µM", "Relation Operator": ">", "TGI": 100}
{"Molecule": "CCCCCCCCCCCCCCCCP(=O)(O)OCC(N)C(=O)O (stereo not drawn)", "Display Unit": "µM", "Relation Operator": ">", "TGI": 100}
{"Molecule": "O=S(=O)(/N=S(/Nc1ccccc1)C(Cl)Cl)c1ccccc1 (stereo not drawn)", "Display Unit": "µM", "Relation Operator": ">", "TGI": 100}
{"Molecule": "Cc1ccc(S(=O)(=O)NC(=O)NCc2ccc(S(N)(=O)=O)cc2)cc1", "Display Unit": "µM", "Relation Operator": ">", "TGI": 100}
{"Molecule": "COC(=O)C(=O)C(C(=O)C(=O)Nc1ccccc1C(N)=O)c1nc2ccc(Cl)cc2[nH]c1=O (stereo not drawn)", "Display Unit": "µM", "Relation Operator": ">", "TGI": 100}
{"Molecule": "NCc1ccc(-c2ccc(CN)s2)s1", "Display Unit": "µM", "Relation Operator": ">", "TGI": 100}
{"Molecule": "O=C(Nc1ccc(Cl)cc1)c1cc(-c2ccc(F)cc2)c2sc(=O)[nH]c2n1", "Display Unit": "µM", "Relation Operator": "=", "TGI": 28.9}
{"Molecule": "CC12CCCC(C(=O)O)(C1)[C@H](C(C)(C)C(=O)O)CC2 (stereo partly drawn)", "Display Unit": "µM", "Relation Operator": ">", "TGI": 100}
{"Molecule": "O=[N+]([O-])/C(C(Cl)=C(Cl)Cl)=C1\\Nc2ccc([N+](=O)[O-])cc2N1", "Display Unit": "µM", "Relation Operator": ">", "TGI": 100}
{"Molecule": "COC(=O)Nc1nc2ccc(Oc3ccc(NC(=O)Nc4ccccc4)cc3)cc2[nH]1", "Display Unit": "µM", "Relation Operator": "=", "TGI": 3.1}
{"Molecule": "CC/C=C\\C[C@@H]1C/C=C2/C(=O)C=C[C@H]2C/C=C\\CCCC(=O)O1", "Display Unit": "µM", "Relation Operator": "=", "TGI": 1.28}
{"Molecule": "COc1cc2c(cc1C)NC(=O)/C2=C/c1cccnc1", "Display Unit": "µM", "Relation Operator": "=", "TGI": 27.3}
{"Molecule": "C=CC(C)(C)n1cc(C2=C3OC(=O)C(c4cn(C(C)(C)C=C)c5ccccc45)=C3OC2=O)c2ccccc21", "Display Unit": "µM", "Relation Operator": ">", "TGI": 100}
{"Molecule": "COc1cc2oc(-c3ccc(O)cc3)cc(=O)c2c(OC)c1OC", "Display Unit": "µM", "Relation Operator": ">", "TGI": 100}
{"Molecule": "O=C1c2c(Br)sc(Br)c2C(NC(=O)C(F)(F)F)C1O (stereo not drawn)", "Display Unit": "µM", "Relation Operator": "=", "TGI": 39.4}

Values from PubChem BioAssay (NCI)
